Sourced from patent US20130143891A1

Entries and their IC50 values follow.
System: MCF7 breast cancer cell line
experimental_protocol: MTT cell cytotoxicity assay, MCF7
Format: cell-based, human
protocol_conditions: Homo sapiens, MCF7, 72 h, 72 h exposure, read-out: Cytotoxicity (IC50s)
Experimental: A panel of colon (HT29, HCT116, COLO205, HCC2998), breast (MCF7, MDA-MB-435), lung (HOP62, HOP92), ovarian (OVCAR3, IGROV1), prostate (DU145, PC3), and head and neck (SCC61, HEP2, SQ20B) human cancer cell lines was purchased from the ATCC (Rockville, Md.) and National Cancer Institute collections. […] Cell viability was determined using the MTT assay, which was carried out as described previously (Hansen, 1989). […]
# unit: nM | format: bare number

>>> print(df.to_string())
                                   compound  unit_name  value_measured
0  O=c1[nH]cc(F)c(=O)[nH]1 [5-FU, 5-fluorouracil]         nM            1300
1  CN(Cc1cnc2nc(N)nc(N)c2n1)c1ccc(C(=O)N[C@@H](CCC(=O)O)C(=O)O)cc1 [Methotrexate]         nM          300000

Now turn to the next compound.
QUERY: // returns reported IC50 for input Nc1nc2[nH]cc(CCc3ccc(C(=O)N[C@@H](CCC(=O)O)C(=O)O)cc3)c2c(=O)[nH]1 [Pemetrexed, pemetrexed]
RESULT: 22
